Source listed as the NTF2 design screens of Basanta et al. (2020).

- method-notes: protease stability score; higher = more stable; yeast display proteolysis, trypsin and chymotrypsin;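 also: relative to predicted unfolded state with 0 unfolded-like and 1 meaning tenfold more protease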
experimental-readout: protease stability score
Give bare numbers.

// below: answered sequences
1) DEEEEKDRILVEIWKRLVLTGDEEELLNLADPEARQTVHFNGKEVRNVGMERVIEHNREYLRLMGVDHITVDRSRVVNGRVENHHRVFVGEKEIRFEIEVTIINGRLRSVTIRVR	0.379
2) DEEDKHLIDMFRILMRTIETGNEEETRKLMDPHTIIEIGDKRSHGWESWKKFIEDLERRFDHVRIEIEDVKVQGDKAIVRTRLKLIVGDKHFEHDTRIFVVMVNGRIHTFRVEID	1.48

We next turn to a different sequence, shown below.
Incoming: Which measured protease stability score value corresponds to SDYERLFTIAVQLVIDVIQTGNFRELERLLDPNVRVDINGQEFVGREELVHWMHKVIRRADHLEITLRDVELQGDKLVLDMELVERYDGKEYRTRIRVFAHKINGQWYIRTFEVR ?
Outgoing: 1.51
